metric: melting point

Worked examples follow.
1) CCOCc1nc2c(N)nc3cc(-c4ccccc4)ccc3c2n1CC1CCN(C(=O)C(C)C)CC1 (hydrate or solvate)
156 to 158 °C
2) CCOCc1nc2c(N)nc3cc(-c4ccccc4)ccc3c2n1CC1CCN(C(=O)N2CCOCC2)CC1
208 to 209 °C

Prompt line: Identify the reported melting point for the following entry. CCOCc1nc2c(N)nc3cc(-c4cccnc4)ccc3c2n1CCCCNC(=O)C1CCCC1 (hydrate or solvate)
Response line: 196 to 198 °C

Prompt line: Identify the reported melting point for the following entry. CCCCc1nc2c(N)nc3cc(-c4cccnc4)ccc3c2n1CCN1CCCS1(=O)=O
Response line: 290 to 292 °C

Prompt line: Identify the reported melting point for the following entry. COCc1nc2c(N)nc3cc(-c4cccnc4)ccc3c2n1CC(C)(C)O
Response line: 225 to 225.5 °C

Prompt line: Identify the reported melting point for the following entry. COCc1nc2c(N)nc3cc(-c4cncc(OC)c4)ccc3c2n1CC(C)(C)O
Response line: 234 to 236 °C

Prompt line: Identify the reported melting point for the following entry. CCCOc1cccc(-c2ccc3c(c2)nc(N)c2nc(COCC)n(CC(C)C)c23)c1
Response line: 140 to 141 °C

Prompt line: Identify the reported melting point for the following entry. COCCc1nc2c(N)nc3cc(-c4cccc(CO)c4)ccc3c2n1CC(C)(C)O
Response line: 212 to 213 °C

Prompt line: Identify the reported melting point for the following entry. CCOCc1nc2c(N)nc3cc(-c4cccnc4)ccc3c2n1CC1CCN(C(=O)C(C)C)CC1 (hydrate or solvate)
Response line: 130 to 132 °C

Prompt line: Identify the reported melting point for the following entry. CCOCc1nc2c(N)nc3c(-c4cccc(C(=O)N5CCOCC5)c4)cccc3c2n1CC(C)(C)O
Response line: 164 to 166 °C

Prompt line: Identify the reported melting point for the following entry. CCOCc1nc2c(N)nc3cc(-c4ccc(-c5ccc6c(c5)nc(N)c5nc(COCC)n(CC(C)(C)O)c56)cc4)ccc3c2n1CC(C)(C)O
Response line: 325 to 328 °C
